Every entry's value here was drawn from ChEMBL document CHEMBL1143954.

Test system UniProt P10827, Kd listed for each of the molecules.

{"molecule": "O=C1NC(=O)C(Cc2cc(I)c(Oc3ccc(O)c(C4CC4)c3)c(I)c2)N1 (stereo unspecified)", "Kd / nM": 25}
{"molecule": "O=C1NC(=O)C(Cc2cc(I)c(Oc3ccc(O)cc3)c(I)c2)N1 (stereo unspecified)", "Kd / nM": 1700}
{"molecule": "CC(C)c1cc(Oc2c(I)cc(CC3NC(=O)NC3=O)cc2I)ccc1O (stereo unspecified)", "Kd / nM": 1.2}
{"molecule": "CC(C)c1cc(Oc2c(Br)cc(CC3NC(=O)NC3=O)cc2Br)ccc1O (stereo unspecified)", "Kd / nM": 17}
{"molecule": "CCc1cc(Oc2c(I)cc(CC3NC(=O)NC3=O)cc2I)ccc1O (stereo unspecified)", "Kd / nM": 15}
{"molecule": "Cc1cc(Oc2c(I)cc(CC3NC(=O)NC3=O)cc2I)ccc1O (stereo unspecified)", "Kd / nM": 42}

---

Each record here notes measured pEC50.
study system: Thyroid hormone receptor alpha (Homo sapiens, UniProt P10827)
Sequence (P10827 whole entry): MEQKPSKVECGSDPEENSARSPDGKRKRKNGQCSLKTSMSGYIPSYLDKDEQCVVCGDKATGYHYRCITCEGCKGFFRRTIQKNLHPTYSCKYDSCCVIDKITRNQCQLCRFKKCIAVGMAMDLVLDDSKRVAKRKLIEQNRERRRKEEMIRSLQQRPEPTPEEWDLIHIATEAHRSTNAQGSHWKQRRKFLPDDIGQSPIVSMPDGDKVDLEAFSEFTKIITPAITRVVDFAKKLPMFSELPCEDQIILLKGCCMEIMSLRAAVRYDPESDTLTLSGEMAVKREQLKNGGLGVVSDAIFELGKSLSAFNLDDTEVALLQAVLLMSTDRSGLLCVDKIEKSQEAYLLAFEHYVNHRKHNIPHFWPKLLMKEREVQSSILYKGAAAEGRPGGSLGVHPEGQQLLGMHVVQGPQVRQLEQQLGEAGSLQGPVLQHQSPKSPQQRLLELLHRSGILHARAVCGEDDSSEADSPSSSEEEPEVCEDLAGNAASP
pEC50: −log10 of the molar value.
quantity name: pEC50

{"molecule": "COc1cc(Oc2c(I)cc(CC3NC(=O)NC3=O)cc2I)ccc1O (centres undefined)", "quantity name": "pEC50", "value prefix": "=", "quantitative result": 7.38}
{"molecule": "CC(C)c1cc(Oc2c(Br)cc(CC3NC(=O)NC3=O)cc2Br)ccc1O (centres undefined)", "quantity name": "pEC50", "value prefix": "=", "quantitative result": 8.08}
{"molecule": "CC(C)c1cc(Oc2c(I)cc(CC3NC(=O)NC3=O)cc2I)ccc1O (centres undefined)", "quantity name": "pEC50", "value prefix": "=", "quantitative result": 7.96}
{"molecule": "Cc1cc(Oc2c(I)cc(CC3NC(=O)NC3=O)cc2I)ccc1O (centres undefined)", "quantity name": "pEC50", "value prefix": "=", "quantitative result": 7.57}
{"molecule": "O=C1NC(=O)C(Cc2cc(I)c(Oc3ccc(O)cc3)c(I)c2)N1 (centres undefined)", "quantity name": "pEC50", "value prefix": "<", "quantitative result": 5.00}
{"molecule": "O=C1NC(=O)C(Cc2cc(I)c(Oc3ccc(O)c(I)c3)c(I)c2)N1 (centres undefined)", "quantity name": "pEC50", "value prefix": "=", "quantitative result": 7.68}
{"molecule": "CCc1cc(Oc2c(I)cc(CC3NC(=O)NC3=O)cc2I)ccc1O (centres undefined)", "quantity name": "pEC50", "value prefix": "=", "quantitative result": 8.00}
{"molecule": "O=C1NC(=O)C(Cc2cc(I)c(Oc3ccc(O)c(Br)c3)c(I)c2)N1 (centres undefined)", "quantity name": "pEC50", "value prefix": "=", "quantitative result": 7.36}
{"molecule": "O=C1NC(=O)C(Cc2cc(I)c(Oc3ccc(O)c(C4CC4)c3)c(I)c2)N1 (centres undefined)", "quantity name": "pEC50", "value prefix": "=", "quantitative result": 7.41}

---

study system: UniProt P10828
Sequence (P10828 whole entry): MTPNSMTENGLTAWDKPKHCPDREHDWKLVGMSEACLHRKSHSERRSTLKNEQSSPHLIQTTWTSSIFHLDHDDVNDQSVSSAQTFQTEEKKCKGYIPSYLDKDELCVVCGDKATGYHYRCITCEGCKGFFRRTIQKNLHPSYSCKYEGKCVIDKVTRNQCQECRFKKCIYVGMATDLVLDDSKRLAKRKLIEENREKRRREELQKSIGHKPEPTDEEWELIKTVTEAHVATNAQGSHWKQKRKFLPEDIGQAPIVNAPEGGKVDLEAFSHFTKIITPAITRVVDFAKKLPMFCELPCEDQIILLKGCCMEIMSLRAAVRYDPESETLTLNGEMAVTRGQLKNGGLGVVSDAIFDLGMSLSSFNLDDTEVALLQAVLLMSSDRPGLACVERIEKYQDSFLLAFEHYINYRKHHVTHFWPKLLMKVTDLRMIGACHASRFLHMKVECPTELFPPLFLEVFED
quantity name: EC50 (µM)

{"compound": "COc1cc(Oc2c(I)cc(CC3NC(=O)NC3=O)cc2I)ccc1O (centres undefined)", "unit spec": "µM", "value prefix": "=", "quantitative result": 8}
{"compound": "O=C1NC(=O)C(Cc2cc(I)c(Oc3ccc(O)cc3)c(I)c2)N1 (centres undefined)", "unit spec": "µM", "value prefix": ">", "quantitative result": 20}
{"compound": "CC(C)c1cc(Oc2c(I)cc(CC3NC(=O)NC3=O)cc2I)ccc1O (centres undefined)", "unit spec": "µM", "value prefix": "=", "quantitative result": 0.39}
{"compound": "O=C1NC(=O)C(Cc2cc(I)c(Oc3ccc(O)c(C4CC4)c3)c(I)c2)N1 (centres undefined)", "unit spec": "µM", "value prefix": "=", "quantitative result": 2}
{"compound": "Cc1cc(Oc2c(I)cc(CC3NC(=O)NC3=O)cc2I)ccc1O (centres undefined)", "unit spec": "µM", "value prefix": "=", "quantitative result": 4}
{"compound": "CC(C)c1cc(Oc2c(Br)cc(CC3NC(=O)NC3=O)cc2Br)ccc1O (centres undefined)", "unit spec": "µM", "value prefix": "=", "quantitative result": 0.421}
{"compound": "O=C1NC(=O)C(Cc2cc(I)c(Oc3ccc(O)c(Br)c3)c(I)c2)N1 (centres undefined)", "unit spec": "µM", "value prefix": "=", "quantitative result": 5.2}
{"compound": "O=C1NC(=O)C(Cc2cc(I)c(Oc3ccc(O)c(I)c3)c(I)c2)N1 (centres undefined)", "unit spec": "µM", "value prefix": "=", "quantitative result": 2}
{"compound": "CCc1cc(Oc2c(I)cc(CC3NC(=O)NC3=O)cc2I)ccc1O (centres undefined)", "unit spec": "µM", "value prefix": "=", "quantitative result": 1.4}

---

Test system Thyroid hormone receptor alpha (Homo sapiens, UniProt P10827), pEC50 listed for each of the compounds.
pEC50: −log10 of the molar value.
quantity name: pEC50

{"compound": "CCc1cc(Oc2c(I)cc(CC3NC(=O)NC3=O)cc2I)ccc1O (stereo not given)", "study system": "Thyroid hormone receptor alpha (Homo sapiens, UniProt P10827)", "quantity name": "pEC50", "quantitative result": 7.06}
{"compound": "O=C1NC(=O)C(Cc2cc(I)c(Oc3ccc(O)c(I)c3)c(I)c2)N1 (stereo not given)", "study system": "Thyroid hormone receptor alpha (Homo sapiens, UniProt P10827)", "quantity name": "pEC50", "quantitative result": 6.98}
{"compound": "O=C1NC(=O)C(Cc2cc(I)c(Oc3ccc(O)c(C4CC4)c3)c(I)c2)N1 (stereo not given)", "study system": "Thyroid hormone receptor alpha (Homo sapiens, UniProt P10827)", "quantity name": "pEC50", "quantitative result": 6.84}
{"compound": "Cc1cc(Oc2c(I)cc(CC3NC(=O)NC3=O)cc2I)ccc1O (stereo not given)", "study system": "Thyroid hormone receptor alpha (Homo sapiens, UniProt P10827)", "quantity name": "pEC50", "quantitative result": 6.84}
{"compound": "CC(C)c1cc(Oc2c(Br)cc(CC3NC(=O)NC3=O)cc2Br)ccc1O (stereo not given)", "study system": "Thyroid hormone receptor alpha (Homo sapiens, UniProt P10827)", "quantity name": "pEC50", "quantitative result": 6.89}
